Source listed as patent US20180099931A1.

Target: F508delCFTR (Homo sapiens, UniProt P13569, DEL508-508)
Construct: expressed in transfected cells; host or cells: CFBE41o- human lung-derived epithelial cells (CFBE4lo-F508delCFTR-HRP), doxycycline-inducible
Sequence (P13569 with tags, fused parts or gaps DEL508-508): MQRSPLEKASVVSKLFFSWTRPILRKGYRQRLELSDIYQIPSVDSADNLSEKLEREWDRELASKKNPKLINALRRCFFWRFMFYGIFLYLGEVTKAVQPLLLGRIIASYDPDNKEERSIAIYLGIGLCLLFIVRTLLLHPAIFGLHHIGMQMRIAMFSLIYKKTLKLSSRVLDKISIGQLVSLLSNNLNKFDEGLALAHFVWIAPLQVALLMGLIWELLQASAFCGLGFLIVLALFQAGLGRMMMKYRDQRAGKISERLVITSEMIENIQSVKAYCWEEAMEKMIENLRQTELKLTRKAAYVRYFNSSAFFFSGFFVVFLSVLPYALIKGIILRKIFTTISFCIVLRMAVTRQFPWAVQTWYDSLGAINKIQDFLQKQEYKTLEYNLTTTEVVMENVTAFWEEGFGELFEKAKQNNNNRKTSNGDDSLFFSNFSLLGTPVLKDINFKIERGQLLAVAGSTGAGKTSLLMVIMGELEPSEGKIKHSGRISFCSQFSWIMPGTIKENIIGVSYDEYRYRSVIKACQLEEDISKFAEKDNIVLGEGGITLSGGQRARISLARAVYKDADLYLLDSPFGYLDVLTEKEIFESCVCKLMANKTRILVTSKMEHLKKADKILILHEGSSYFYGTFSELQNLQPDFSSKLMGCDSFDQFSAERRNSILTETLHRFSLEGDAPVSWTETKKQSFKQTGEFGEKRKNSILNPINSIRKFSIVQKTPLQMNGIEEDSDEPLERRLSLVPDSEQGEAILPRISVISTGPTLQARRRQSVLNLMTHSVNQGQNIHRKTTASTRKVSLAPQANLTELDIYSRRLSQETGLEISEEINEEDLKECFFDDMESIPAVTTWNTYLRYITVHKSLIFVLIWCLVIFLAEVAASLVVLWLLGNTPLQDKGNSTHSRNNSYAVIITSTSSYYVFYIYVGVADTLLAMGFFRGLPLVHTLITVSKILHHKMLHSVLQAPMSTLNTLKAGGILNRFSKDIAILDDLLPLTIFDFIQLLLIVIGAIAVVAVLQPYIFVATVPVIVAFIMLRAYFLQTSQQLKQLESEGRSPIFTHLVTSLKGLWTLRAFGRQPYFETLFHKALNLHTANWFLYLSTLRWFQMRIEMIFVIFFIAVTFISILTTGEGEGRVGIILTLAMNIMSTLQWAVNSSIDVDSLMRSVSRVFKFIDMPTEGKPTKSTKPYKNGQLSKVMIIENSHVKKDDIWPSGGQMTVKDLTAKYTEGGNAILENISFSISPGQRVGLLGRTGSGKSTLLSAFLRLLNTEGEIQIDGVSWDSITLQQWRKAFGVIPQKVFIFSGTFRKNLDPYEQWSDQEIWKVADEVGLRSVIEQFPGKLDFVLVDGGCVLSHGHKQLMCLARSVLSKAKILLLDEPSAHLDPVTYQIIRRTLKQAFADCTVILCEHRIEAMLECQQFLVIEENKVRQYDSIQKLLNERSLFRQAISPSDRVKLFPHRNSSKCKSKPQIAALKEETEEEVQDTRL
Test: Cell Surface Expression-Horse Radish Peroxidase (CSE-HRP) Assay;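 for Maximum % activity (without co-corrector): percent of the 2 µM on-plate positive control corrector response above DMSO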
Format: cell-based
Conditions: without co-corrector; maximum at any tested concentration, normalized to on-plate positive control; read-out: Maximum % activity (without co-corrector)
Procedure: Cell Surface Expression-Horse Radish Peroxidase (CSE-HRP) Assay The development was achieved by expressing the F508delCFTR mutation along with a horseradish peroxidase (HRP) in the fourth exofacial loop, and then measuring the HRP activity using luminescence readout from these cells, CFBE4lo-F508delCFTR-HRP, that were incubated overnight with the test corrector compounds, either without or with the co-corrector. […] The raw counts from the experiment were analyzed using Accelrys® Assay Explorer v3.3. […]
Provide the reported Emax of each item.

Sample records with Emax:
COc1ccc(C(C)(C)C)cc1CN[C@H]1[C@H](C(C)(C)C)[C@@H](C(=O)O)N(C(=O)[C@@H]2CCCO2)[C@H]1c1cccnc1C1CC1	100 to 200%
COc1ncc(-c2ccccc2F)cc1CN[C@H]1[C@H](C(C)(C)C)[C@@H](C(=O)O)N(C(=O)C2CCCCC2)[C@H]1c1ccccc1	> 200%
COc1ncc(C(F)(F)F)cc1N[C@@H]1[C@@H](C(C)(C)C)[C@H](C(=O)O)N(C(=O)C2CCCCC2)[C@@H]1c1ccccc1 (racemic)	< 100%

Please state, for each entry, its recorded Emax.
1. CC(C)c1cc(C(F)(F)F)cc(N[C@H]2[C@H](C(C)(C)C)[C@@H](C(=O)O)N(C(=O)C3CCCCC3)[C@H]2c2ccccc2)n1
2. COc1ccc(C2=CCOCC2)cc1CN[C@H]1[C@H](C(C)(C)C)[C@@H](C(=O)O)N(C(=O)C2CCCCC2)[C@H]1c1ccccc1

1: < 100%; 2: 100 to 200%

----------
Molecular target: F508delCFTR (Homo sapiens, UniProt P13569, DEL508-508)
Construct: expressed in transfected cells; host or cells: CFBE41o- human lung-derived epithelial cells (CFBE4lo-F508delCFTR-HRP), doxycycline-inducible
Test: Cell Surface Expression-Horse Radish Peroxidase (CSE-HRP) Assay;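 for Maximum % activity (without co-corrector): percent of the 2 µM on-plate positive control corrector response above DMSO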
Type: cell-based
Details: CSE-HRP; without co-corrector; maximum at any tested concentration, normalized to on-plate positive control; read-out: Maximum % activity (without co-corrector)
MEASURED_METRIC: Emax

Consider the following illustrative entries.
COc1ccc(C(C)(C)C)cc1CN[C@H]1[C@H](C(C)(C)C)[C@@H](C(=O)O)N(C(=O)CC2CCCC2(F)F)[C@H]1c1ccccc1 (stereo partly drawn)	> 200%
COc1ccc(C(C)(C)C)cc1CN[C@H]1[C@H](C(C)(C)C)[C@@H](C(=O)O)N(C(=O)[C@@H]2CCCO2)[C@H]1c1ccccc1C	> 200%
COc1cc(Cl)ccc1CN[C@H]1[C@H](C(C)(C)C)[C@@H](C(=O)O)N(C(=O)C2CCCCC2)[C@H]1c1cccnc1C	100 to 200%

Take each entry in turn and give its Emax.
1. COc1ccc(C(C)(C)C)cc1CN[C@H]1[C@H](C(C)(C)C)[C@@H](C(=O)O)N(C(=O)Cc2cccc(F)c2F)[C@H]1c1ccccc1
2. COc1ncc(C(F)(F)F)cc1N[C@@H]1[C@@H](C(C)(C)OC)[C@H](C(=O)O)N(C(=O)C2CCCCC2)[C@@H]1c1ccccc1 (racemic)
3. COc1cc(C)ccc1CN[C@H]1[C@H](C(C)(C)C)[C@@H](C(=O)O)N(C(=O)[C@@H]2CCCCO2)[C@H]1c1cccnc1OC

1. > 200%
2. < 100%
3. < 100%

----------
For each entry below, report its Emax value.
Molecular target: F508delCFTR (Homo sapiens, UniProt P13569, DEL508-508)
Construct: expressed in transfected cells; host or cells: CFBE41o- human lung-derived epithelial cells (CFBE4lo-F508delCFTR-HRP), doxycycline-inducible
Experiment: Cell Surface Expression-Horse Radish Peroxidase (CSE-HRP) Assay;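 for Maximum % activity (without co-corrector): percent of the 2 µM on-plate positive control corrector response above DMSO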
Type: cell-based
Settings: CSE-HRP; without co-corrector; maximum at any tested concentration, normalized to on-plate positive control; read-out: Maximum % activity (without co-corrector)

Solved cases (5 shown):
COc1ccc(C(C)(C)C)cc1CN[C@H]1[C@H](C(C)(C)C)[C@@H](C(=O)O)N(C(=O)c2ccc(Oc3ccccn3)cc2)[C@H]1c1ccccc1	> 200%
COc1ccc(C(C)(C)C)cc1CN[C@H]1[C@H](C(C)(C)C)[C@@H](C(=O)O)N(C(=O)c2c(OC)cnn2C)[C@H]1c1ccccc1	100 to 200%
COc1ccc(C(C)(C)C)cc1CN[C@H]1[C@H](C(C)(C)C)[C@@H](C(=O)O)N(C(=O)CC2(O)CCCCC2)[C@H]1c1ccccc1	> 200%
COc1cc(C(C)(C)C)ccc1CN[C@H]1[C@H](C(C)(C)C)[C@@H](C(=O)O)N(C(=O)C2CCCCC2)[C@H]1c1ccccc1	100 to 200%
CC(C)(C)c1cccc(CN[C@H]2[C@H](C(C)(C)C)[C@@H](C(=O)O)N(C(=O)C3CCCCC3)[C@H]2c2ccccc2)c1	< 100%

Hi! Can you tell me Emax for each of these compounds?
1. COc1ccc(C(F)(F)F)cc1CN[C@@H]1[C@@H](C(C)(C)C)[C@H](C(=O)O)N(C(=O)[C@@H](OC)c2ccccc2)[C@@H]1c1ccccc1
2. COc1ccc(C(C)C)cc1CN[C@@H]1[C@@H](C(C)(C)C)[C@H](C(=O)O)N(C(=O)C2CCCCC2)[C@@H]1c1ccccc1 (racemic)
3. COc1cc(C(F)(F)F)ccc1CN[C@H]1[C@H](C(C)(C)C)[C@@H](C(=O)O)N(C(=O)C2CCCCC2)[C@H]1c1ccccc1F
4. COc1ccc(C(C)(C)C)cc1CN[C@H]1[C@H](C(C)(C)C)[C@@H](C(=O)O)N(C(=O)c2cccnc2C)[C@H]1c1ccccc1
5. COc1ccc(Cl)cc1CN[C@@H]1[C@@H](C(C)(C)C)[C@H](C(=O)O)N(C(=O)OC(C)C)[C@@H]1c1cccnc1N(C)C (racemic)
6. COc1ccc(C(F)(F)F)cc1CN[C@H]1[C@H](C(C)(C)C)[C@@H](C(=O)O)N(C(=O)C2CCc3ccccc3O2)[C@H]1c1ccccc1 (some centres unmarked)
7. COc1cc(CN[C@H]2[C@H](C(C)(C)C)[C@@H](C(=O)O)N(C(=O)C3CCCCC3)[C@H]2c2ccccc2)ccc1F
8. COc1ccc(Cl)cc1CN[C@@H]1[C@@H](C(C)(C)OC)[C@H](C(=O)O)N(C(=O)C2CCCCC2)[C@@H]1c1ccccc1 (racemic)

1: < 100%; 2: > 200%; 3: < 100%; 4: < 100%; 5: > 200%; 6: < 100%; 7: < 100%; 8: > 200%

For every item below, please supply its Emax.
1. COc1ccc(C(C)(C)C)cc1CN[C@H]1[C@H](C(C)(C)C)[C@@H](C(=O)O)N(C(=O)CC2CCC(C)(C)OC2)[C@H]1c1ccccc1 (some centres unmarked)
2. COc1ccc(C(C)(C)C)cc1CN[C@@H]1[C@@H](C(C)(C)C)[C@H](C(=O)O)N(C(=O)OC(C)C)[C@@H]1c1ccccc1 (racemic)
3. CC(C)(C)[C@H]1[C@H](Nc2cc(C(F)(F)F)cc(C(F)(F)F)c2)[C@H](c2ccccc2)N(C(=O)C2CCCCC2)[C@@H]1C(=O)O
4. COc1ccc(C(C)(C)C)cc1CN[C@H]1[C@H](C(C)(C)C)[C@@H](C(=O)O)N(C(=O)c2cccc(Cn3cncn3)c2)[C@H]1c1ccccc1

1: 100 to 200%; 2: > 200%; 3: 100 to 200%; 4: 100 to 200%

----------
Target: F508delCFTR (Homo sapiens, UniProt P13569, DEL508-508)
Construct: expressed in transfected cells; host or cells: CFBE41o- human lung-derived epithelial cells (CFBE4lo-F508delCFTR-HRP), doxycycline-inducible
Assay: Cell Surface Expression-Horse Radish Peroxidase (CSE-HRP) Assay;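 for Maximum % activity (with co-corrector): co-corrector and positive control are both the same reference corrector at 2 µM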
Assay type: cell-based
Settings: with co-corrector (2 μM); maximum at any tested concentration, normalized to on-plate positive control
MEASURED_METRIC: Maximum % activity (with co-corrector)

COc1ccc(C2(C#N)CCC2)cc1CN[C@H]1[C@H](C(C)(C)C)[C@@H](C(=O)O)N(C(=O)C2CCCCC2)[C@H]1c1ccccc1 [Example I-155]	+++ (≥350)
COc1cc(C(F)(F)F)ccc1CN[C@H]1[C@H](C(C)(C)C)[C@@H](C(=O)O)N(C(=O)C2CCCCC2)[C@H]1c1cccnc1OC [Example I-39]	+++ (≥350)
CCn1ccc(=O)c(C(=O)N2[C@H](C(=O)O)[C@@H](C(C)(C)C)[C@H](NCc3cc(C(C)(C)C)ccc3OC)[C@@H]2c2ccccc2)c1 [Example I-101]	+ (<150)
COc1cc(Cl)ccc1CN[C@H]1[C@H](C(C)(C)C)[C@@H](C(=O)O)N(C(=O)C2CCCCC2)[C@H]1c1ncccc1OC (racemic) [III-143]	+ (<150)
COc1ccc(CN[C@H]2[C@H](C(C)(C)C)[C@@H](C(=O)O)N(C(=O)C3CCCCC3)[C@H]2c2ccccc2)cc1Cl [III-126]	++ (≥150 and <350)
COc1ccc(S(F)(F)(F)(F)F)cc1CN[C@H]1[C@H](C(C)(C)C)[C@@H](C(=O)O)N(C(=O)C2CCCCC2)[C@H]1c1ccccc1 [Example I-86]	+++ (≥350)
CC(C)(C)c1ccc(CN[C@H]2[C@H](C(C)(C)C)[C@@H](C(=O)O)N(C(=O)[C@@H]3CCCC(F)(F)C3)[C@H]2c2ccccc2)c(Cl)n1 [Example I-247]	+++ (≥350)
COc1ncc(-c2ccccc2F)cc1CN[C@H]1[C@H](C(C)(C)C)[C@@H](C(=O)O)N(C(=O)C2CCCCC2)[C@H]1c1ccccc1 [Example I-140]	+++ (≥350)
CC(C)(C)[C@H]1[C@H](Nc2cc3ccccc3cn2)[C@H](c2ccccc2)N(C(=O)C2CCCCC2)[C@@H]1C(=O)O [III-156]	++ (≥150 and <350)
COc1ccc(C(C)(C)C)cc1CN[C@H]1[C@H](C(C)(C)C)[C@@H](C(=O)O)N(C(=O)C2CCc3cc(F)ccc3O2)[C@H]1c1cccnc1N(C)C (stereo partly drawn) [III-210]	++ (≥150 and <350)

Hey, can you go through the list below and give me Maximum % activity (with co-corrector) for every item?
1. CC(C)(C)[C@H]1[C@H](NCc2ccc(F)c(C#N)c2)[C@H](c2ccccc2)N(C(=O)C2CCCCC2)[C@@H]1C(=O)O [III-125]
2. CCc1cc2ccc(Cl)cc2nc1N[C@H]1[C@H](C(C)(C)C)[C@@H](C(=O)O)N(C(=O)C2CCCCC2)[C@H]1c1ccccc1 [III-149]
3. COc1ccc(C(C)(C)C)cc1CN[C@H]1[C@H](C(C)(C)C)[C@@H](C(=O)O)N(C(=O)c2ccccc2)[C@H]1c1ccccc1 [Example I-65]
4. CCC(C)c1ccc(OC)c(CN[C@H]2[C@H](C(C)(C)C)[C@@H](C(=O)O)N(C(=O)C3CCCCC3)[C@H]2c2ccccc2)c1 (stereo partly drawn) [III-168]

++ (≥150 and <350)
+++ (≥350)
+++ (≥350)
+++ (≥350)

# return Maximum % activity (with co-corrector) for each item in the list
1. COc1ccc(C(C)(C)C)cc1CN[C@H]1[C@H](C(C)(C)C)[C@@H](C(=O)O)N(C(=O)OC2COC2)[C@H]1c1ccccc1 [Example I-244]
2. CC(C)(C)[C@H]1[C@H](NCc2cc(Br)ccc2OC(F)F)[C@H](c2ccccc2)N(C(=O)C2CCCCC2)[C@@H]1C(=O)O [III-131]
3. COc1ccc(C(C)(C)C)cc1CN[C@H]1[C@H](C(C)(C)C)[C@@H](C(=O)O)N(C(=O)[C@H](C)c2ccccc2)[C@H]1c1cccnc1N(C)C [Example I-233]

1: +++ (≥350); 2: +++ (≥350); 3: +++ (≥350)

What measured Maximum % activity (with co-corrector) goes with COc1nc(C(C)(C)C)ccc1CN[C@H]1[C@H](C(C)(C)C)[C@@H](C(=O)O)N(C(=O)[C@H]2CCCCO2)[C@H]1c1ccccc1 [Example 39] ?
+++ (≥350)
